Reported pEC50 values for the following molecules.
# system-tested: GST tagged LXRbeta LBD (ligand binding domain) (Homo sapiens)
# Sequence (P55055 222-460 limits assumed): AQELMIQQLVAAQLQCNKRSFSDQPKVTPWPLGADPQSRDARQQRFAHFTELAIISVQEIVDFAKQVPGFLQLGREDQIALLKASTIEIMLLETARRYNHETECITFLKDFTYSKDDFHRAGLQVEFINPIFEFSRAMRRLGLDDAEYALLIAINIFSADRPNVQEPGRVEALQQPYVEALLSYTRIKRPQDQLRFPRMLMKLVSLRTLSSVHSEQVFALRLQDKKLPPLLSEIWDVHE
# experiment-description: LanthaScreen TR-FRET Liver X Receptor Coactivator Assay, LXR beta-LBD
# condition-parameters: Inflection Point (potency), co-activator recruitment, relative to reference T0901317; read-out: LXR beta IP
# pEC50 = -log10(concentration in molar units)

The examples below pair each entry with its known result.
molecule	quantitative-readout
CN(C)C(=O)c1ccc(N2CCC(C3CCN(C(=O)C4(c5c(F)cccc5Cl)CCCC4)CC3)CC2)cc1Cl	8.15
CC(C)C(O)(C(=O)N1CCC(C2CCN(c3ccc(C(=O)N(C)C)c(Cl)c3)CC2)CC1)C(C)C	7.21
C=C(C)CC(O)(C(=O)N1CCC(C2CCN(c3ccc(C(=O)N(C)C)c(Cl)c3)CC2)CC1)C(F)(F)F (stereo not shown)	7.19

Now, please, on to the next molecule.
Exam item: Which pEC50 value is on record for CN(C)C(=O)c1ccc(N2CCC(C3CCN(C(=O)C(O)(c4ccccc4)C(F)(F)F)CC3)CC2)cc1Cl (stereo not shown) ?
Marked response: 6.97

====

# system-tested: GST tagged LXRbeta LBD (ligand binding domain) (Homo sapiens)
# experiment-description: LanthaScreen TR-FRET Liver X Receptor Coactivator Assay, LXR beta-LBD
# condition-parameters: Inflection Point (potency), co-activator recruitment, relative to reference T0901317; read-out: LXR beta IP
EC50 values for the compounds below.
Report field: quantity (unit follows the number).

A selection of reference data follows.
compound	system-tested	EC50
CN(C)C(=O)c1ccc(N2CCC(C3CCN(C(=O)C(C)(C)c4ccccc4F)CC3)CC2)cc1Cl	GST tagged LXRbeta LBD (ligand binding domain) (Homo sapiens)	31 nM
O=C(c1ccc(N2CCC(C3CCN(C(=O)[C@](O)(c4ccccc4)C(F)(F)F)CC3)CC2)cc1Cl)N(CCF)CCF	GST tagged LXRbeta LBD (ligand binding domain) (Homo sapiens)	171 nM
COc1cccc(C2(C(=O)N3CCC(C4CCN(c5ccc(C(=O)N(C)C)c(Cl)c5)CC4)CC3)CCCC2)c1	GST tagged LXRbeta LBD (ligand binding domain) (Homo sapiens)	210 nM
CC(C)CC(O)(C(=O)N1CCC(C2CCN(c3ccc(C(=O)N(C)C)c(Cl)c3)CC2)CC1)C(F)(F)F (centres unmarked) [Example A-5]	GST tagged LXRbeta LBD (ligand binding domain) (Homo sapiens)	51 nM
CC(C)(C)OC(=O)N1CCC(C2CCN(c3ccc(C(C)(C)O)c(Cl)c3)CC2)CC1	GST tagged LXRbeta LBD (ligand binding domain) (Homo sapiens)	322 nM

Next:
Exam item: Need EC50 of O=C(c1ccc(N2CCC(C3CCN(C(=O)[C@](O)(c4ccccc4)C(F)(F)F)CC3)CC2)cc1Cl)N1CCC[C@H]1CO , thanks.
Marked response: 21 nM

====

# system-tested: GST tagged LXRbeta LBD (ligand binding domain) (Homo sapiens)
# Construct: purchased Invitrogen pv4658.pps
# experiment-description: LanthaScreen TR-FRET Liver X Receptor Coactivator Assay, LXR beta-LBD
# Format: biochemical
# condition-parameters: activity at max dose (efficacy), relative to reference T0901317; read-out: LXR beta act @ max dose (%)
measured-attribute: Emax (%)
Unit % implied. Number only.

Worked examples follow.
molecule	reading-unit	quantitative-readout
CN(C)C(=O)c1ccc(N2CCC(C3CCN(C(=O)C4(c5ccccc5Cl)CC4)CC3)CC2)cc1Cl [Example A-86]	%	112
CN(C)C(=O)c1ccc(N2CCC(C3CCN(C(=O)C(C)(C)c4ccc(Cl)cc4)CC3)CC2)cc1Cl [Example A-44]	%	95
CCN(CC)C(=O)c1ccc(N2CCC(C3CCN(C(=O)c4c(F)cccc4F)CC3)CC2)cc1Cl [Example E-14]	%	78
CC1(C)CCN(C(=O)c2ccc(N3CCC(C4CCN(C(=O)[C@](O)(c5ccccc5)C(F)(F)F)CC4)CC3)cc2Cl)C1 [Example E-28]	%	57
CN(C)C(=O)c1ccc(N2CCC(C3CCN(C(=O)c4c(F)cc(F)cc4F)CC3)CC2)cc1Cl [Example A-37]	%	93
CC(C)C(O)(C(=O)N1CCC(C2CCN(c3ccc(C(=O)N(C)C)c(Cl)c3)CC2)CC1)C1CC1 (centres unmarked) [Example A-110]	%	127

Exam item: Entry COC(=O)c1ccc(N2CCC(C3CCN(C(=O)OC(C)(C)C)CC3)CC2)nc1Cl [Example E-1] has what Emax?
Marked response: 36

Exam item: Entry CCC1CCCN1C(=O)c1ccc(N2CCC(C3CCN(C(=O)[C@](O)(c4ccccc4)C(F)(F)F)CC3)CC2)cc1Cl (some centres unmarked) [Example E-30] : reported Emax = ?
Marked response: 74

Exam item: // lookup Emax for CC(C)C(O)(C(=O)N1CCC(C2CCN(c3ccc(C(=O)N4CCCC4)c(Cl)c3)CC2)CC1)C(F)(F)F (centres unmarked) [Example E-7]
Marked response: 74

Exam item: Please report the recorded Emax for Cc1cccc(C2(C(=O)N3CCC(C4CCN(c5ccc(C(=O)N(C)C)c(Cl)c5)CC4)CC3)CCC2)c1 [Example A-19] .
Marked response: 94

Exam item: Endpoint output: Emax of COC(=O)c1ccc(N2CCC(C3CCN(C(=O)c4c(F)cccc4F)CC3)CC2)cc1Cl [Example E-2] . Value?
Marked response: 25

====

A collection of compounds and their measured Emax
# system-tested: GST tagged LXRbeta LBD (ligand binding domain) (Homo sapiens)
# Construct: purchased Invitrogen pv4658.pps
# experiment-description: LanthaScreen TR-FRET Liver X Receptor Coactivator Assay, LXR beta-LBD
# Assay type: biochemical
# condition-parameters: activity at max dose (efficacy), relative to reference T0901317; read-out: LXR beta act @ max dose (%)
Write it as a number; the unit % goes unstated.

compound	reading-unit	quantitative-readout
O=C(c1ccc(N2CCC(C3CCN(C(=O)[C@](O)(c4ccccc4)C(F)(F)F)CC3)CC2)cc1Cl)N1CCC1CO (some centres unmarked) [Example E-46]	%	55

Exam item: Report Emax for O=C(c1ccc(N2CCC(C3CCN(C(=O)[C@@](O)(c4ccccc4)C(F)(F)F)CC3)CC2)cc1Cl)N1CCCC1 (single isomer, unassigned) [Example E-19] tested on GST tagged LXRbeta LBD (ligand binding domain) (Homo sapiens).
Marked response: 88

Exam item: Query Emax on GST tagged LXRbeta LBD (ligand binding domain) (Homo sapiens) for CN(C)C(=O)c1ccc(N2CCC(C3CCN(C(=O)C4(C(F)(F)F)CCC4)CC3)CC2)cc1Cl [Example A-29]
Marked response: 106

====

# system-tested: GST tagged LXRalpha LBD (ligand binding domain) (Homo sapiens, UniProt Q13133)
# Sequence (Q13133 209-447 limits assumed): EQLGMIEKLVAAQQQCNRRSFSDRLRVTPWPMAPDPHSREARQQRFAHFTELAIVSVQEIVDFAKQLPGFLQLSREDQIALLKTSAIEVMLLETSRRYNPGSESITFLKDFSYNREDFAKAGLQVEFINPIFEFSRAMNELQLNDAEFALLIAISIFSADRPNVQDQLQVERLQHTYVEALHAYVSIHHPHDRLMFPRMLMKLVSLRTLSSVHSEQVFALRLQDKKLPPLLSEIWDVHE
# experiment-description: LanthaScreen TR-FRET Liver X Receptor Coactivator Assay, LXR alpha-LBD
# condition-parameters: Inflection Point (potency), co-activator recruitment, relative to reference T0901317; read-out: LXR alpha IP
measured-attribute: pEC50
Interpret pEC50 as the negative base-10 log of the concentration measured in mol/L.

compound	pEC50
CN(C)C(=O)c1ccc(N2CCC(C3CCN(C(=O)C(O)(c4ccccc4)C(F)(F)F)CC3)CC2)cc1Cl (stereo not shown) [Example A-36]	5.74

Exam item: I'm curious: which pEC50 was measured for Cc1nc(CCN(C)C(=O)c2ccc(N3CCC(C4CCN(C(=O)[C@](O)(c5ccccc5)C(F)(F)F)CC4)CC3)cc2Cl)no1 [Example E-55] tested on GST tagged LXRalpha LBD (ligand binding domain) (Homo sapiens, UniProt Q13133)?
Marked response: 5.95

Exam item: Any idea what pEC50 came out for CC(C)(C)OC(=O)N1CCC(C2CCN(c3ccc(C(C)(C)O)c(Cl)c3)CC2)CC1 [Example E-69] on GST tagged LXRalpha LBD (ligand binding domain) (Homo sapiens, UniProt Q13133)?
Marked response: 6.00

Exam item: Param readout= pEC50; system= GST tagged LXRalpha LBD (ligand binding domain) (Homo sapiens, UniProt Q13133); entry= CN(C)C(=O)c1ccc(N2CCC(C3CCN(C(=O)C4(C(F)(F)F)CCCCC4)CC3)CC2)cc1Cl [Example A-27] ; returns value.
Marked response: 6.52

====

# system-tested: GST tagged LXRalpha LBD (ligand binding domain) (Homo sapiens)
# experiment-description: LanthaScreen TR-FRET Liver X Receptor Coactivator Assay, LXR alpha-LBD
# condition-parameters: Inflection Point (potency), co-activator recruitment, relative to reference T0901317; read-out: LXR alpha IP
// assign y if EC50 falls strictly below 1000 nM, else n (ties count as n)

compound	label-class
O=C(c1c(F)cccc1F)N1CCC(C2CCN(c3ccc(C(=O)N4CCCC4C(F)(F)F)c(Cl)c3)CC2)CC1 (stereo not drawn)	n
CC(C)CC(O)(C(=O)N1CCC(C2CCN(c3ccc(C(=O)N(C)C)c(Cl)c3)CC2)CC1)C(F)(F)F (stereo not drawn) [Example A-90]	y
CC(C)(C)OC(=O)NCC1CN(C(=O)c2ccc(N3CCC(C4CCN(C(=O)[C@](O)(c5ccccc5)C(F)(F)F)CC4)CC3)cc2Cl)C1	n
O=C1CCN(C(=O)c2ccc(N3CCC(C4CCN(C(=O)[C@](O)(c5ccccc5)C(F)(F)F)CC4)CC3)cc2Cl)C1	n
CN(C)C(=O)c1ccc(N2CCC(C3CCN(C(=O)C4(c5ccc(F)cc5)CCC4)CC3)CC2)cc1Cl	n

Kindly review the next compound as well.
Exam item: EC50 strictly < 1000 nM for this compound? CN(C)C(=O)c1ccc(N2CCC(C3CCN(C(=O)C(O)(C(C)(C)C)C(F)(F)F)CC3)CC2)cc1Cl (single isomer, unassigned) [Example A-6]
Marked response: y
